Tested on: HT29 cells
method_description: Western blot protein expression
Assay type: cell-based
applied_conditions: HT29, IC50, 72 h, representative blot Figure S29A
p-AKT/AKT/GAPDH normalized to control (1) vs 0.5: less than gives class 1; not less than gives class 0.

As a guide, the following entries are already answered.
[[record]]
compound = "N[C@H]1CCCC[C@@H]1N.O=[N+]([O-])[O-].O=[N+]([O-])[O-].[OH-].[OH-].[Pt+4].c1cnc2c(c1)ccc1cccnc12"
study_system = "HT29 cells"
answer_label = "class 0"

[[record]]
compound = "N.N.[Cl][Pt][Cl] [Cisplatin, cisplatin]"
study_system = "HT29 cells"
answer_label = "class 1"

[[record]]
compound = "Cc1c(C)c2cccnc2c2ncccc12.N[C@H]1CCCC[C@@H]1N.O=[N+]([O-])[O-].O=[N+]([O-])[O-].[OH][Pt+2][OH]"
study_system = "HT29 cells"
answer_label = "class 0"

[[record]]
compound = "Cc1cc2cccnc2c2ncccc12.N[C@H]1CCCC[C@@H]1N.O=[N+]([O-])[O-].O=[N+]([O-])[O-].[Pt+2]"
study_system = "HT29 cells"
answer_label = "class 1"

[[record]]
compound = "Cc1c(C)c2cccnc2c2ncccc12.N[C@H]1CCCC[C@@H]1N.O=[N+]([O-])[O-].O=[N+]([O-])[O-].[Pt+2]"
study_system = "HT29 cells"
answer_label = "class 0"


Consider N[C@H]1CCCC[C@@H]1N.O=[N+]([O-])[O-].O=[N+]([O-])[O-].[Pt+2].c1cnc2c(c1)ccc1cccnc12 . Does its p-AKT/AKT/GAPDH normalized to control (1) lie strictly below 0.5?
class 1

Consider Cc1cc2cccnc2c2ncccc12.N[C@H]1CCCC[C@@H]1N.O=[N+]([O-])[O-].O=[N+]([O-])[O-].[OH][Pt+2][OH] . Does its p-AKT/AKT/GAPDH normalized to control (1) lie strictly below 0.5?
class 1
